- ASSAY_SYSTEM: JAK2 (Homo sapiens)
- Construct: made in house; host or cells: SF9 insect cells (baculovirus)
- Sequence (O60674 812-1132): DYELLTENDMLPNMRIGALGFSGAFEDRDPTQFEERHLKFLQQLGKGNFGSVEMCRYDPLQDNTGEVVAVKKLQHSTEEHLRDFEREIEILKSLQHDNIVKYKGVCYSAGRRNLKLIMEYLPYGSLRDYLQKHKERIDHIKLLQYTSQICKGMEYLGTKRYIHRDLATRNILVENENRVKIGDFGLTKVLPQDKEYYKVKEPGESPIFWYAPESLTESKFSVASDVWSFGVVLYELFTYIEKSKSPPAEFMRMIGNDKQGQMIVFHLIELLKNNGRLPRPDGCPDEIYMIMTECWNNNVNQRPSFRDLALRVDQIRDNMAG
- TEST: JAK2 inhibition (Table 4)
- Format: biochemical
- TEST_CONTEXT: read-out: JAK2 Ki
TEST_READOUT: Ki (nM)

// known answers, use as guide
{"columns": ["COMPOUND", "MEASURE_UNIT", "Ki"],
 "data": [
  ["CC(C)N1CC(c2nc3cnc4[nH]ccc4c3n2C2CCN(CCC#N)CC2)CC1=O (racemic)", "nM", 167],
  ["Fc1cccc(CN2CCC(n3cnc4cnc5[nH]ccc5c43)CC2)c1", "nM", 1.16],
  ["CC1CNCCC1n1cnc2cnc3[nH]ccc3c21 (racemic) [Example 312]", "nM", 415],
  ["C[C@@H](O)c1nc2cnc3[nH]ccc3c2n1C1CCN(C2COC2)CC1", "nM", 428],
  ["CC1CC(n2cnc3cnc4[nH]ccc4c32)CCN1 (racemic) [Example 230]", "nM", 123]
]}

P: CC(CC#N)N1CCC(n2c(CCn3cncn3)nc3cnc4[nH]ccc4c32)CC1 (racemic)
Q: C[C@@H](O)c1nc2cnc3[nH]ccc3c2n1[C@H]1CC[C@H](N(C)CCC#N)CC1
Query string: When P and Q are compared, which has the higher number for Ki? To answer, give the label that identifies your chosen option.
Result string: P

1: Cc1cnn(CCc2nc3cnc4[nH]ccc4c3n2C2CCN(CCC#N)CC2)c1
2: NCC(F)(F)c1nc2cnc3[nH]ccc3c2n1C1CCN(Cc2cccnc2)CC1
Query string: Higher Ki: 1 or 2 ? API: response body contains the label of the selected item.
Result string: 1
(1: 59.8 nM, 2: 13.3 nM)

a: CCN1CCC(n2nnc3cnc4[nH]ccc4c32)C(F)(F)C1 (racemic)
b: Cc1nc2cnc3[nH]ccc3c2n1C1CCc2cn[nH]c2C1 (racemic)
Query string: Hi! Which is lower in terms of Ki, the first one a or the second one b ? Lab note: record the label of whichever item you select.
Result string: a
(a: 15.7 nM, b: 37.1 nM)
